The reported numbers originate from a collection of fitness landscapes (doi:10.1126/science.1257360).

Field: enrichment ratio. Provide a value for each of the variants that follow.
B1: PhoQ; a variant is named by its letters at X, in order, P23837 (parent)
chain: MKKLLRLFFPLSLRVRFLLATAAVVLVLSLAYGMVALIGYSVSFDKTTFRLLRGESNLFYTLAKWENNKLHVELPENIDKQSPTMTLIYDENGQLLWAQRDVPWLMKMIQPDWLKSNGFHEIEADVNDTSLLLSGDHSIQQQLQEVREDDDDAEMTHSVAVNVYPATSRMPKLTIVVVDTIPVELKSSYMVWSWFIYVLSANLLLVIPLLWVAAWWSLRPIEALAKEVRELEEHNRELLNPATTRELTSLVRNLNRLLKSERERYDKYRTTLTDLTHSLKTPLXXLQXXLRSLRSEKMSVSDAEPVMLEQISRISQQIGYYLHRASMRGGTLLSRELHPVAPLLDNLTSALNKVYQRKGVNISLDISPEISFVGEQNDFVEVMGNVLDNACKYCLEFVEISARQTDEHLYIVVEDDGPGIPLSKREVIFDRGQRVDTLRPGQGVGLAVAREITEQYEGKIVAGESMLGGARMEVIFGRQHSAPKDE

- Variants of: B1
- assay-summary: enrichment ratio after two sorts for PhoP signalling (ratio (wild type AVST 3.29)); higher = more functional
- cond: with PhoP (E. coli)
Over roughly 140,000 sequences, “enrichment ratio after two sorts for PhoP signalling” has its median near 0; the highest 2% begin near 11. Many of the other results were omitted from the sample, so the highest values are more common in it than they were.

Please look at the items below and tell me enrichment ratio for each one, in order.
1. TVQC
2. MGAG
3. NIRT
4. ARCL
5. ALQP
6. SWRM
7. RYRE

**Result**
1. 4.14
2. 1.81
3. ≤ 0.25
4. 4.81
5. ≤ 0.25
6. ≤ 0.25
7. ≤ 0.25
